Quick record of IC50 values for fatty acid amide hydrolase (FAAH), rat brain homogenate (Rattus norvegicus).

Cc1ccc2c(ccn2CC2CCN(C(=O)OC(C(F)(F)F)C(F)(F)F)CC2)c1 | > 10 µM
N#Cc1ccc2c(ccn2CC2CCN(C(=O)OC(C(F)(F)F)C(F)(F)F)CC2)c1 | > 10 µM

Continue with the next compound.
Entry `COc1ccc2c(ccn2CC2CCN(C(=O)OC(C(F)(F)F)C(F)(F)F)CC2)c1` , system fatty acid amide hydrolase (FAAH), rat brain homogenate (Rattus norvegicus): what IC50 was measured?
> 10 µM

* * *

Method Description: Chemical stability in aqueous solution
Format: physicochemical
Condition Parameters: percent of parent remaining after 60 min at 37 °C; mean ± SD, n=3
Outcome Measure: PBS‐buffer pH 7.4 Stability

Field: example entries. Status: answers known.
O=C(OC(C(F)(F)F)C(F)(F)F)N1CCC(CCn2cnc3ccccc32)CC1 [Compound 101] | > 95%
NC(=O)c1cccc(-c2cccc(OC(=O)NC3CCCCC3)c2)c1 [URB597, reference compound] | > 95%

Sample O=C(OC(C(F)(F)F)C(F)(F)F)N1CCC(Cn2ccc3ccc(F)cc32)CC1 [Compound 20] — what was its PBS‐buffer pH 7.4 Stability?
> 95%

* * *

Entries annotated with measured IC50
Study Target: fatty acid amide hydrolase (FAAH), rat brain homogenate (Rattus norvegicus, UniProt P97612)
Sequence (P97612 1-579): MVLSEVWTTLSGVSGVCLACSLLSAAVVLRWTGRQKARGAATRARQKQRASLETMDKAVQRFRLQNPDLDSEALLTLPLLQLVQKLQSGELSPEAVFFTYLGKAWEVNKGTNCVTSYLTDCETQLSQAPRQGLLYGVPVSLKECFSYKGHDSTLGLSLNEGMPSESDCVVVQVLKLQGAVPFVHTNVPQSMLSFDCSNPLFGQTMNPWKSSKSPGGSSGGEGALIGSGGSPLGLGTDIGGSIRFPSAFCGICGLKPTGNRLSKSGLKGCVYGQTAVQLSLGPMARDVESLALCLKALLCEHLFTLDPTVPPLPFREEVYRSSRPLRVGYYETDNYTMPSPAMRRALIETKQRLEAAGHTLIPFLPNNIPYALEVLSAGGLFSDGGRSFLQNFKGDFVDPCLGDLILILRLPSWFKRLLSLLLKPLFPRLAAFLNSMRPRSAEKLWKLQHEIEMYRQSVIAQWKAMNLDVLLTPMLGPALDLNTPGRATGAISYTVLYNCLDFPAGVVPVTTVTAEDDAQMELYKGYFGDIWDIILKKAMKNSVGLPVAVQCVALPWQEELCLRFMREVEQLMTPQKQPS

Field: example entries. Status: answers known.
Cc1ccc2c(ccn2CCC2CCN(C(=O)OC(C(F)(F)F)C(F)(F)F)CC2)c1 | > 10 µM
N#Cc1ccc2c(ccn2CCC2CCN(C(=O)OC(C(F)(F)F)C(F)(F)F)CC2)c1 | > 10 µM

Continue with the next compound.
Sample `O=C(OC(C(F)(F)F)C(F)(F)F)N1CCC(CCn2nnc3ccccc32)CC1` — what was its IC50?
> 10 µM
